Entries and their pIC50
# SYSTEM: CDK8 (Homo sapiens, UniProt P49336)
# Sequence (P49336 whole entry, one chain of several): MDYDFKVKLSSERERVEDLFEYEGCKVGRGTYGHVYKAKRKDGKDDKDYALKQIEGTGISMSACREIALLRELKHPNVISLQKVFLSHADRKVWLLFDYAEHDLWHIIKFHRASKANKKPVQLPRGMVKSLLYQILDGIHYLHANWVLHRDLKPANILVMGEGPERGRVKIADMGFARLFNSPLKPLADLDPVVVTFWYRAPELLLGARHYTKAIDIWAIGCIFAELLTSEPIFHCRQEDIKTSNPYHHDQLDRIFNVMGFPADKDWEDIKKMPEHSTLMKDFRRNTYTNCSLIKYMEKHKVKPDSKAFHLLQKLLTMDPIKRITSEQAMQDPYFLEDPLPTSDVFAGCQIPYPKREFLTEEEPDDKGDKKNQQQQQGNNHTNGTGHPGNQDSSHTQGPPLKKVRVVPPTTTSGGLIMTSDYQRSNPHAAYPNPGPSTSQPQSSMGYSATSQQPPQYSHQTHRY
# ASSAY: Cell-based QPCR assay of CDK8/19-dependent gene expression, HEK293 CDK19 single-knockout (19KO) cells
# Design: CDK19 single-knockout (19KO); endogenous in cells; host or cells: HEK293 CDK19 knockout (19KO)
# CONDITIONS_USED: IC50, MYC mRNA expression, 19KO, HEK293 19KO, 1 h pre-treatment, then 10 ng/mL TNFα 2 h
The quantity pIC50 is defined as the negative base-10 logarithm of the molar concentration.

1) Cc1n[nH]c2ncc(C(=O)N3CCC[C@H]3c3ccc(Cl)cc3)cc12 [Cmpd4] : 8.72

Can you look up the measured pIC50 of CN(C)C1CC23CCC4(O2)C(=CCC2(C)C(c5ccc6ccncc6c5)=CCC24)C=C3C(O)C1O (centres unmarked) [dCA, 16-didehydro-cortistatin A] for me? 9.30

---

Entries and their pIC50
# SYSTEM: CDK19 (Homo sapiens, UniProt Q9BWU1)
# Sequence (Q9BWU1 whole entry): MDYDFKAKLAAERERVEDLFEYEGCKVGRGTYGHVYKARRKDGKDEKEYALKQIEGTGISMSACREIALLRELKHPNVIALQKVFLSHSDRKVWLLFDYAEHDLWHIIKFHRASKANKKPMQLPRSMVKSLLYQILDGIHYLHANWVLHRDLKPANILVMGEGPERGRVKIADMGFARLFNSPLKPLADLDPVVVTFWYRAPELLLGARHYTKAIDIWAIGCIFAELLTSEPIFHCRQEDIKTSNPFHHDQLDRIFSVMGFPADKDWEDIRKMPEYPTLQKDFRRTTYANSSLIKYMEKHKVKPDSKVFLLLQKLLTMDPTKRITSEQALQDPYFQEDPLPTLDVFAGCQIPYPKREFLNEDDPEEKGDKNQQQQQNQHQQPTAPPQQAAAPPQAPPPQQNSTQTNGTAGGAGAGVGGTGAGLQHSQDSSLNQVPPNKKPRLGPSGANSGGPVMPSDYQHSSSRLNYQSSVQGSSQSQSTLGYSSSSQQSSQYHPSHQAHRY
# Sequence (P24863 whole entry partner): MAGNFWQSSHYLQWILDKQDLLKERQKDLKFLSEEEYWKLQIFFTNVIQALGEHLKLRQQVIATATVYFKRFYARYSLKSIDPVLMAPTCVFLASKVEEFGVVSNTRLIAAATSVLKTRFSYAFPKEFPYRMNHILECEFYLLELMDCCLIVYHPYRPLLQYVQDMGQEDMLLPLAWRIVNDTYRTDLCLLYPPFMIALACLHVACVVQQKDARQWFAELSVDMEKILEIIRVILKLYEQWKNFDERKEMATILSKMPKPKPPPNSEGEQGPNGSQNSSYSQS
# ASSAY: Cell-based QPCR assay of CDK8/19-dependent gene expression, HEK293 CDK8 single-knockout (8KO) cells
# Design: CDK8 single-knockout (8KO); endogenous in cells; host or cells: HEK293 CDK8 knockout (8KO)
# CONDITIONS_USED: IC50, MYC mRNA expression, 8KO, HEK293 8KO, 1 h pre-treatment, then 10 ng/mL TNFα 2 h
The quantity pIC50 is defined as the negative base-10 logarithm of the molar concentration.

Example results:
1) Cc1n[nH]c2ncc(C(=O)N3CCC[C@H]3c3ccc(Cl)cc3)cc12 : 8.85
2) Cn1ncc2cc(-c3cnc(N)c(Cl)c3N3CCC4(CCNC4=O)CC3)ccc21 : 9.05

Here is another compound to look at.
Can you look up the measured pIC50 of CN(C)C1CC23CCC4(O2)C(=CCC2(C)C(c5ccc6ccncc6c5)=CCC24)C=C3C(O)C1O (stereo not drawn) [dCA, 16-didehydro-cortistatin A] for me? 9.22

---

# SYSTEM: UniProt:Q9BWU1
# ASSAY: Cell-based QPCR assay of CDK8/19-dependent gene expression, HEK293 CDK8 single-knockout (8KO) cells
# Design: CDK8 single-knockout (8KO); endogenous in cells; host or cells: HEK293 CDK8 knockout (8KO)
# CONDITIONS_USED: HEK293 8KO, 1 h pre-treatment, then 10 ng/mL TNFα 2 h, read-out: IC50, MYC mRNA expression, 8KO
OBSERVABLE: IC50 (nM)
Write it as a number; the unit nM goes unstated.

Can you look up the measured IC50 of CN(C)C(=O)Cc1ccc(N2CCCN(c3ccnc4sc(C(N)=O)c(N)c34)CC2)cc1 [15w] for me? 6.2

---

Entries and their IC50
# Test system: CDK8/19
# ASSAY: Cell-based QPCR assay of CDK8/19-dependent gene expression, HEK293 parental (WT) cells
# Design: species or system human
# CONDITIONS_USED: HEK293 WT; 1 h pre-treatment, then 10 ng/mL TNFα 2 h; QPCR; read-out: IC50, CXCL8 mRNA expression, WT
The reply must contain the numeric value and, after it, the unit.

1. CN1CCN(C(=O)c2ccc3cc(CCNc4ncnc5ccc(C#N)cc45)ccc3c2)CC1 [Senexin B] : 81 nM

Here is another molecule to look at.
Can you look up the measured IC50 of CN(C)C(=O)Cc1ccc(N2CCCN(c3ccnc4sc(C(N)=O)c(N)c34)CC2)cc1 [15w] for me? 5.5 nM
